test system: FaDu; assay: mitochondrial oxygen consumption rate normalised to cell number, Z score over the library; higher = higher oxygen consumption (negative = OCR reduction); conditions: treatment time 24 h; assay medium: 5 mM galactose, 5 mM pyruvate, 4 mM glutamine; 10 µM
Where a name gives a salt, the structure may show the parent alone. In all, about 1,600 compounds were measured (“mitochondrial oxygen consumption rate normalised to cell number, Z score over the library”: median about 0.065, lowest 2% from about -2.2 on). This excerpt belongs to a sample that is enriched for the lowest values.
Assignment: determine reported mitochondrial oxygen consumption rate normalised for the given compounds.
Answer field: number only, no words.

[Q] In one line, give reported mitochondrial oxygen consumption rate normalised of the entry `CCCCC(=O)O[C@]1(C(=O)CO)[C@@H](C)C[C@H]2[C@@H]3CCC4=CC(=O)C=C[C@]4(C)[C@@]3(F)[C@@H](O)C[C@@]21C` .
[A] -0.0902

[Q] In one line, give reported mitochondrial oxygen consumption rate normalised of the entry `CCC(=O)NCC[C@@H]1CCc2ccc3c(c21)CCO3` .
[A] -0.125

[Q] In one line, give reported mitochondrial oxygen consumption rate normalised of the entry `COc1ccc(-n2nc(CCC(=O)N(C)O)cc2-c2ccc(Cl)cc2)cc1` .
[A] -0.88

[Q] In one line, give reported mitochondrial oxygen consumption rate normalised of the entry `N=C(N)NS(=O)(=O)c1ccc(N)cc1` .
[A] -0.417

[Q] In one line, give reported mitochondrial oxygen consumption rate normalised of the entry `O=C[C@H](O)[C@@H](O)[C@H](O)CO` .
[A] -0.552

[Q] In one line, give reported mitochondrial oxygen consumption rate normalised of the entry C[C@]12CC[C@@H]3c4ccc(O)cc4C[C@@H](CCCCCCCCC[S+]([O-])CCCC(F)(F)C(F)(F)F)[C@H]3[C@@H]1CC[C@@H]2O (stereo partly specified) .
[A] -2.25

[Q] In one line, give reported mitochondrial oxygen consumption rate normalised of the entry `CC(=O)Nc1ccc(S(=O)(=O)Nc2ccc([N+](=O)[O-])cc2)cc1` .
[A] 1.45

[Q] In one line, give reported mitochondrial oxygen consumption rate normalised of the entry `CN(C)[C@@H]1C(O)=C(C(N)=O)C(=O)[C@@]2(O)C(O)=C3C(=O)c4c(O)cccc4[C@@](C)(O)[C@H]3[C@H](O)[C@@H]12` .
[A] 0.305

[Q] In one line, give reported mitochondrial oxygen consumption rate normalised of the entry `CC(=O)O[C@H]1C(=O)[C@@]2(C)[C@H]([C@H](OC(=O)c3ccccc3)[C@]3(O)C[C@H](OC(=O)[C@H](O)[C@@H](NC(=O)c4ccccc4)c4ccccc4)C(C)=C1C3(C)C)[C@]1(OC(C)=O)CO[C@@H]1C[C@@H]2O` .
[A] -0.326

[Q] In one line, give reported mitochondrial oxygen consumption rate normalised of the entry COc1cc([C@@H]2c3cc4c(cc3[C@@H](O[C@@H]3O[C@@H]5CO[C@@H](C)O[C@H]5[C@H](O)[C@H]3O)[C@H]3COC(=O)[C@H]23)OCO4)cc(OC)c1O [Etoposide] .
[A] -0.0499

[Q] In one line, give reported mitochondrial oxygen consumption rate normalised of the entry CN(C)CC(c1ccc(O)cc1)C1(O)CCCCC1 (stereo unspecified) .
[A] 0.524

[Q] In one line, give reported mitochondrial oxygen consumption rate normalised of the entry Cc1ccc(Nc2nccc(N(C)c3ccc4c(C)n(C)nc4c3)n2)cc1S(N)(=O)=O [Pazopanib HCl] .
[A] -0.379

[Q] In one line, give reported mitochondrial oxygen consumption rate normalised of the entry `COc1cc([C@@H]2c3cc4c(cc3[C@@H](O[C@@H]3O[C@@H]5CO[C@@H](C)O[C@H]5[C@H](O)[C@H]3O)[C@H]3COC(=O)[C@H]23)OCO4)cc(OC)c1O` .
[A] -1.53

[Q] In one line, give reported mitochondrial oxygen consumption rate normalised of the entry COc1ccc(OC)c(C(O)CNC(=O)CN)c1 (stereo unspecified) .
[A] 0.934

[Q] In one line, give reported mitochondrial oxygen consumption rate normalised of the entry `O=C1CN2Cc3c(ccc(Cl)c3Cl)N=C2N1` .
[A] 1.01

[Q] In one line, give reported mitochondrial oxygen consumption rate normalised of the entry `Cn1nnnc1SCC1=C(C(=O)O)N2C(=O)[C@@H](NC(=O)[C@H](O)c3ccccc3)[C@H]2SC1` .
[A] 0.376

* * *

system: FaDu; assay: mitochondrial oxygen consumption rate normalised to cell number, Z score over the library; higher = higher oxygen consumption (negative = OCR reduction); details: treatment time 24 h; assay medium: 5 mM galactose, 5 mM pyruvate, 4 mM glutamine; 10 µM
The full ranking holds about 1,600 compounds; the median of “mitochondrial oxygen consumption rate normalised to cell number, Z score over the library” is about 0.065, and the lowest 2% start at about -2.2. This is one part of a sample in which the lowest values are shown more often than they occur.
Assignment: determine reported mitochondrial oxygen consumption rate normalised for the given molecules.

[Q] In one line, give reported mitochondrial oxygen consumption rate normalised of the entry `CN1CCN(c2cc3c(cc2F)c(=O)c(C(=O)O)cn3-c2ccc(F)cc2)CC1` .
[A] -0.0696

[Q] In one line, give reported mitochondrial oxygen consumption rate normalised of the entry `Cn1nnnc1SCC1=C(C(=O)O)N2C(=O)[C@@H](NC(=O)[C@H](OC=O)c3ccccc3)[C@H]2SC1` .
[A] 0.0513

[Q] In one line, give reported mitochondrial oxygen consumption rate normalised of the entry `CC[C@@]1(O)C(=O)OCc2c1cc1n(c2=O)Cc2cc3c(CN(C)C)c(O)ccc3nc2-1` .
[A] -4.46

[Q] In one line, give reported mitochondrial oxygen consumption rate normalised of the entry `CC1(C)[C@H](C(=O)O)N2C(=O)C[C@H]2S1(=O)=O` .
[A] 0.32

[Q] In one line, give reported mitochondrial oxygen consumption rate normalised of the entry `C[C@H](Cn1cnc2c(N)ncnc21)OCP(=O)(O)O` .
[A] 0.449

* * *

test system: FaDu; experiment: mitochondrial oxygen consumption rate normalised to cell number, Z score over the library; higher = higher oxygen consumption (negative = OCR reduction); settings: treatment time 24 h; assay medium: 5 mM galactose, 5 mM pyruvate, 4 mM glutamine; 10 µM
Over roughly 1,600 compounds, “mitochondrial oxygen consumption rate normalised to cell number, Z score over the library” has its median near 0.065; the lowest 2% begin near -2.2. For the sample, the lowest values were picked, then their nearest neighbours and some compounds at random.
Reported Property: mitochondrial oxygen consumption rate normalised
Answer field: number only, no words.

[Q] In one line, give reported mitochondrial oxygen consumption rate normalised of the entry CC(C)[C@H](N)C(=O)OCC(CO)OCn1cnc2c(=O)nc(N)[nH]c21 (some centres undefined) .
[A] 1.37

[Q] In one line, give reported mitochondrial oxygen consumption rate normalised of the entry `CS(=O)(=O)Nc1ccc([N+](=O)[O-])cc1Oc1ccccc1` .
[A] 0.196

[Q] In one line, give reported mitochondrial oxygen consumption rate normalised of the entry `CCCCC(=O)OCC(=O)[C@]1(O)Cc2c(O)c3c(c(O)c2[C@@H](O[C@H]2C[C@H](NC(=O)C(F)(F)F)[C@H](O)[C@H](C)O2)C1)C(=O)c1c(OC)cccc1C3=O` .
[A] -0.0886

[Q] In one line, give reported mitochondrial oxygen consumption rate normalised of the entry `COc1cccc2c1C(=O)c1c(O)c3c(c(O)c1C2=O)C[C@@](O)(C(=O)CO)C[C@@H]3O[C@H]1C[C@H](N)[C@@H](O)[C@H](C)O1` .
[A] -2.82

[Q] In one line, give reported mitochondrial oxygen consumption rate normalised of the entry `CCCCCCCCCCCCCCCCOP(=O)([O-])OCC[N+](C)(C)C` .
[A] -1.18

[Q] In one line, give reported mitochondrial oxygen consumption rate normalised of the entry `CC(=O)Nc1ccc(OC(=O)c2ccccc2O)cc1` .
[A] -0.337

[Q] In one line, give reported mitochondrial oxygen consumption rate normalised of the entry `CC(=O)Oc1ccccc1C(=O)Nc1ncc([N+](=O)[O-])s1` .
[A] -2.45

[Q] In one line, give reported mitochondrial oxygen consumption rate normalised of the entry `CC(=O)Oc1ccccc1C(=O)O` .
[A] 0.27

[Q] In one line, give reported mitochondrial oxygen consumption rate normalised of the entry `CNC(=O)c1c(I)c(NC(C)=O)c(I)c(C(=O)O)c1I` .
[A] -0.0805

* * *

test system: FaDu; experiment: mitochondrial oxygen consumption rate normalised to cell number, Z score over the library; higher = higher oxygen consumption (negative = OCR reduction); settings: treatment time 24 h; assay medium: 5 mM galactose, 5 mM pyruvate, 4 mM glutamine; 10 µM
In all, about 1,600 compounds were measured (“mitochondrial oxygen consumption rate normalised to cell number, Z score over the library”: median about 0.065, lowest 2% from about -2.2 on). Shown is part of a subset that was picked to be rich in the lowest values.
Classification field: label 1 = mitochondrial oxygen consumption rate normalised at or over -0.4; label 0 = mitochondrial oxygen consumption rate normalised under -0.4.

[Q] Test whether the compound `COc1ccc2cc3[n+](cc2c1OC)CCc1cc2c(cc1-3)OCO2` records mitochondrial oxygen consumption rate normalised of -0.4 or higher.
[A] label 0

[Q] Test whether the compound `C[C@]12CCC(=O)C=C1CC[C@@H]1[C@@H]2[C@@H](O)C[C@@]2(C)[C@H]1CC[C@]2(O)C(=O)COP(=O)(O)O` records mitochondrial oxygen consumption rate normalised of -0.4 or higher.
[A] label 1

[Q] Test whether the compound `Cc1cccc(C)c1NC(=O)c1ccccc1C(=O)O` records mitochondrial oxygen consumption rate normalised of -0.4 or higher.
[A] label 0

[Q] Test whether the compound `COc1ccc2c(c1OC)C(=O)O[C@@H]2[C@H]1c2c(cc3c(c2OC)OCO3)CCN1C` records mitochondrial oxygen consumption rate normalised of -0.4 or higher.
[A] label 1

[Q] Test whether the compound `CC(C)(C)CC(=O)OCC(=O)[C@@]1(O)CC[C@H]2[C@@H]3CCC4=CC(=O)C=C[C@]4(C)[C@H]3[C@@H](O)C[C@@]21C` records mitochondrial oxygen consumption rate normalised of -0.4 or higher.
[A] label 0
